We begin with a simple list: items and their reported log10 IC50.
biological target: human recombinant ATX (Homo sapiens, UniProt Q13822); experiment: Enzyme inhibition test (choline release from LPC, Amplex UltraRed fluorescence); details: 200 μM LPC substrate, 1 hr at room temperature, read-out: Experimental Example 1 human ATX IC50
All values: base-10 log of IC50 in nM.

Consider the reported log10 IC50 for these compounds:
- compound: "O=C(O)CCCC1COCCN1c1cncc(OCc2ccc(OC(F)(F)F)cc2)c1 (centres unmarked) [Example 95]"
  measured-metric: "log10 IC50"
  assay-value: 1.56
- compound: "O=C(O)CC[C@H]1CN(c2cncc(OCC3CCC(F)(F)CC3)c2)CCO1 [Example 75]"
  measured-metric: "log10 IC50"
  assay-value: 1.83

Turning now to a further compound:
Name the recorded log10 IC50 of the item O=C(O)c1ccc(C2CCCN2c2cncc(OCc3ccc(OC(F)(F)F)cc3)c2)cc1 (centres unmarked) [Example 68] in your answer.
1.15

* * *

We begin with a simple list: items and their reported IC50.
Target: human recombinant ATX (Homo sapiens, UniProt Q13822)
Assay: Enzyme inhibition test (choline release from LPC, Amplex UltraRed fluorescence)
Conditions: 200 μM LPC substrate, 1 hr at room temperature, read-out: Experimental Example 1 human ATX IC50
Source text: [Enzyme Inhibition Test Method] […]
Give a bare numeral; the unit nM is implied.

Consider the reported IC50 for these molecules:
- molecule: "O=C(O)COC[C@@H]1COCCN1c1cncc(OCc2ccc(OC(F)(F)F)cc2)c1"
  tested-system: "human recombinant ATX (Homo sapiens, UniProt Q13822)"
  unit-string: "nM"
  IC50: 56
- molecule: "COc1ccc(-c2cnnc(OC[C@H]3CC[C@H](C(F)(F)F)CC3)c2)nc1[C@@H]1C[C@@]1(C)C(=O)O"
  tested-system: "human recombinant ATX (Homo sapiens, UniProt Q13822)"
  unit-string: "nM"
  IC50: 2
- molecule: "Cc1cc(C2CN(c3cncc(OCc4ccc(OC(F)(F)F)cc4)c3)CCO2)cnc1C(=O)O (centres unmarked)"
  tested-system: "human recombinant ATX (Homo sapiens, UniProt Q13822)"
  unit-string: "nM"
  IC50: 5
- molecule: "O=C(O)CC[C@H]1CN(c2cncc(OCc3ccc(SC(F)(F)F)cc3)c2)CCO1"
  tested-system: "human recombinant ATX (Homo sapiens, UniProt Q13822)"
  unit-string: "nM"
  IC50: 12
- molecule: "O=C(O)c1ccnc(C2CN(c3cncc(OCc4ccc(OC(F)(F)F)cc4)c3)CCO2)c1 (centres unmarked)"
  tested-system: "human recombinant ATX (Homo sapiens, UniProt Q13822)"
  unit-string: "nM"
  IC50: 16
- molecule: "O=C(O)[C@@H]1C[C@H]1c1cc(-c2cnnc(OC[C@H]3CC[C@H](C(F)(F)F)CC3)c2)ccn1"
  tested-system: "human recombinant ATX (Homo sapiens, UniProt Q13822)"
  unit-string: "nM"
  IC50: 3
- molecule: "CCOc1ccc(-c2cnnc(OCC3CCN(CC(F)(F)F)CC3)c2)cc1[C@H]1C[C@@H]1C(=O)O"
  tested-system: "human recombinant ATX (Homo sapiens, UniProt Q13822)"
  unit-string: "nM"
  IC50: 2

Name the recorded IC50 of the item O=C(O)CC[C@H]1CN(c2cncc(COc3ccc(C(F)(F)F)cc3)c2)CCO1 in your answer.
129

* * *

We begin with a simple list: items and their reported IC50.
biological target: human recombinant ATX (Homo sapiens); experiment: Enzyme inhibition test (choline release from LPC, Amplex UltraRed fluorescence); settings: 200 μM LPC substrate, 1 hr at room temperature, read-out: Experimental Example 1 human ATX IC50
Give a bare numeral; the unit nM is implied.

- compound: "O=C(O)c1cccc(C2CN(c3cncc(OC[C@H]4CC[C@H](C(F)(F)F)CC4)c3)CCO2)c1 (relative stereo)"
  unit-string: "nM"
  IC50: 3
- compound: "O=C(O)/C=C/CC1COCCN1c1cncc(OCc2ccc(OC(F)(F)F)cc2)c1 (single isomer, unassigned)"
  unit-string: "nM"
  IC50: 74
- compound: "COc1ccc(-c2cnnc(OC[C@H]3CC[C@H](C(F)(F)F)CC3)c2)cc1[C@H]1C[C@@H]1C(=O)O"
  unit-string: "nM"
  IC50: 1

Turning now to a further compound:
Name the recorded IC50 of the item O=C(O)c1ccc(C2CN(c3cncc(OC[C@H]4CC[C@H](C(F)(F)F)CC4)c3)CCO2)nc1 (stereo partly shown) in your answer.
10

* * *

We begin with a simple list: items and their reported IC50.
biological target: human recombinant ATX (Homo sapiens); assay: Enzyme inhibition test (choline release from LPC, Amplex UltraRed fluorescence); settings: 200 μM LPC substrate, 1 hr at room temperature, read-out: Experimental Example 1 human ATX IC50
Give a bare numeral; the unit nM is implied.

Consider the reported IC50 for these molecules:
- molecule: "O=C(O)c1cc(C2CN(c3cncc(OC[C@H]4CC[C@H](C(F)(F)F)CC4)c3)CCO2)ncc1C(F)(F)F (stereo partly shown) [Example 62]"
  assay-value: 1
- molecule: "Cc1cnc(C2CN(c3cncc(OC[C@H]4CC[C@H](C(F)(F)F)CC4)c3)CCO2)cc1C(=O)O (stereo partly shown) [Example 61]"
  assay-value: 15
- molecule: "COc1ccc(-c2cnnc(OCc3ccc(OC(F)(F)F)cc3)c2)nc1[C@H]1C[C@@H]1C(=O)O [Example 25]"
  assay-value: 1

Turning now to a further molecule:
Tell me its IC50 on human recombinant ATX (Homo sapiens): O=C(O)c1ccc2c(c1)OCCN2c1cncc(OCc2ccc(OC(F)(F)F)cc2)c1 [Example 40]
12

* * *

We begin with a simple list: items and their reported log10(IC50).
target: human recombinant ATX (Homo sapiens, UniProt Q13822); assay: Enzyme inhibition test (choline release from LPC, Amplex UltraRed fluorescence); details: 200 μM LPC substrate, 1 hr at room temperature, read-out: Experimental Example 1 human ATX IC50
All values: base-10 log of IC50 in nM.

Name the recorded log10(IC50) of the item O=C(O)CC[C@H]1CN(c2cncc(OCC3CCC4(CC3)CC4)c2)CCO1 in your answer.
0.95

* * *

We begin with a simple list: items and their reported IC50.
target: human recombinant ATX (Homo sapiens); experiment: Enzyme inhibition test (choline release from LPC, Amplex UltraRed fluorescence); details: 200 μM LPC substrate, 1 hr at room temperature, read-out: Experimental Example 1 human ATX IC50
Give a bare numeral; the unit nM is implied.

- molecule: "O=C(O)c1ccc(C2CN(c3cncc(OCc4ccc(OC(F)(F)F)cc4)c3)CCO2)cc1 (stereo not shown)"
  assay-value: 8
- molecule: "COc1cc(C2CN(c3cncc(OC[C@H]4CC[C@H](C(F)(F)F)CC4)c3)CCO2)cnc1C(=O)O (stereo partly shown)"
  assay-value: 1
- molecule: "Cc1nc(C2CN(c3cncc(OC[C@H]4CC[C@H](C(F)(F)F)CC4)c3)CCO2)ccc1C(=O)O (stereo partly shown)"
  assay-value: 7

Turning now to a further molecule:
Name the recorded IC50 of the item O=C(O)CC[C@H]1CN(c2cncc(OCc3ccc(C(F)(F)F)cc3)c2)CCO1 in your answer.
42
